- target of assay: Histone deacetylase 1 (Homo sapiens)
- Sequence (Q13547 whole entry): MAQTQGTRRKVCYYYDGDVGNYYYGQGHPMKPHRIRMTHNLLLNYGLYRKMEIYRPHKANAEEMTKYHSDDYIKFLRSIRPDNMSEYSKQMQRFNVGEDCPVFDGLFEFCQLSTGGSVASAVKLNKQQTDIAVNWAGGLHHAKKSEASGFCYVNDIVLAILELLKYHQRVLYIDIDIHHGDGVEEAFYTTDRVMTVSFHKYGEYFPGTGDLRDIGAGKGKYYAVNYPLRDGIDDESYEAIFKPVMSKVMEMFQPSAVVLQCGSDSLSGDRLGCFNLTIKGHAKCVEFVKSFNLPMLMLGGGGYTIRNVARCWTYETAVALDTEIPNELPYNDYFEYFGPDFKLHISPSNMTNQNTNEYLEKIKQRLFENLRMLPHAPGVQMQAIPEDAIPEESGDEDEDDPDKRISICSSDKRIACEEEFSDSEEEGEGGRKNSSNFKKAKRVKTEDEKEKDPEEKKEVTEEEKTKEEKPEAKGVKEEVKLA
- measurement description: Inhibition of human recombinant HDAC1 incubated for 15 mins by fluorimetry analysis
outcome measure: IC50

What IC50 value was documented for this compound, FC(F)c1nnc(-c2ccc(Cn3nnc(-c4ccccn4)n3)nc2)o1 ? > 100 µM

What IC50 value was documented for this compound, COc1ccccc1-c1nnn(Cc2ccc(-c3nnc(C(F)F)o3)cn2)n1 ? > 100 µM

What IC50 value was documented for this compound, O=C(NO)c1cnc(NC2(c3ccccc3)CCC(F)(F)CC2)nc1 ? 17 µM

What IC50 value was documented for this compound, CS(=O)(=O)NCC(Nc1ncc(-c2nnc(C(F)F)o2)cn1)c1ccc(OC(F)(F)F)cc1 (centres undefined) ? > 100 µM
